Value source: ChEMBL document CHEMBL1136988

- subject-of-test: Protein smoothened (Mus musculus)
- Sequence (P56726 whole entry): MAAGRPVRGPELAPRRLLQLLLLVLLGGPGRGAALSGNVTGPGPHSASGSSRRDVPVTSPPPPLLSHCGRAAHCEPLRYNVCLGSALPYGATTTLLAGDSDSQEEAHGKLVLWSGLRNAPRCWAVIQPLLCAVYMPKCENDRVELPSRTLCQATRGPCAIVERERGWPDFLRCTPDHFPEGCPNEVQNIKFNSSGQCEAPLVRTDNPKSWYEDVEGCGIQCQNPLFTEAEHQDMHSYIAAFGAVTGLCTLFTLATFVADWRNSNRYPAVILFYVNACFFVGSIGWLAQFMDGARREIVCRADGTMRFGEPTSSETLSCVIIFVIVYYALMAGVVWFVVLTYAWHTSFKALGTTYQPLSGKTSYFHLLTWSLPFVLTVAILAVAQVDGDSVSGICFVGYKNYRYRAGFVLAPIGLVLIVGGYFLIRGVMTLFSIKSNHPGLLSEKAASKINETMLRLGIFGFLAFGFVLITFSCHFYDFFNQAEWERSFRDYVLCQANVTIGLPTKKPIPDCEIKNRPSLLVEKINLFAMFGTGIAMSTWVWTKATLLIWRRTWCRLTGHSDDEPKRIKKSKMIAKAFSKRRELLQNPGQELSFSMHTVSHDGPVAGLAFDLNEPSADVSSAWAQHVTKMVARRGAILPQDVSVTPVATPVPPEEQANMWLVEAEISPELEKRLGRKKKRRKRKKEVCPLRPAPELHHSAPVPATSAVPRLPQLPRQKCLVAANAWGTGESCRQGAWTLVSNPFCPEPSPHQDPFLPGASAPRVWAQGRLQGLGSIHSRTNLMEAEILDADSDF
- test-name: Inhibition of Smoothened receptor in mouse TM3 cells transfected with pTA-8xGli-Luc reporter gene assessed as inhibition of 1 nM 3-chloro-4,7-difluoro-N-(4-methoxy-3-(pyridin-4-yl)benzyl)-N-(4-(methylamino)cyclohexyl)benzo[b]thiophene-2-carboxamide-induced Hedgehog pathway activation by Gli shift assay
- Format: cell-based
recorded-metric: IC50 (nM)

GET /values?readout=IC50&item= N#Cc1ccc(N2CCN(c3nnc(Cc4cccc(Cl)c4)c4ccccc34)CC2)nc1 112

Consider next the compound N#Cc1ccc(N2CCN(c3cnc(Cc4ccccc4)c4ccccc34)CC2)nc1 in the same way. 910

(a) FC(F)(F)c1ccc(N2CCN(c3nnc(Cc4ccccc4)c4[nH]cnc34)CC2)nc1
(b) FC(F)(F)c1ccc(N2CCN(c3nnc(Cc4ccccc4)c4occc34)CC2)nc1
(c) N#Cc1ccc(Cc2nnc(N3CCN(c4ccc(C#N)cn4)CC3)c3ccccc23)cc1
(d) NS(=O)(=O)c1ccc(N2CCN(c3nnc(Cc4ccccc4)c4ccccc34)CC2)nc1
Parameters: sort_field (IC50), sort_dir (desc). Put the labels in the requested order and write them down. a, b, d, c

---

- subject-of-test: Protein smoothened (Mus musculus)
- Type: cell-based, TM3
- Description: Inhibition of Smoothened receptor in mouse TM3 cells transfected with pTA-8xGli-Luc reporter gene assessed as inhibition of 25 nM 3-chloro-4,7-difluoro-N-(4-methoxy-3-(pyridin-4-yl)benzyl)-N-(4-(methylamino)cyclohexyl)benzo[b]thiophene-2-carboxamide-induced Hedgehog pathway activation by Gli shift assay
pIC50: −log10 of the molar value.
recorded-metric: pIC50

Use these answered entries as a reference point.
GET /values?readout=pIC50&item= N#Cc1ccc(N2CCN(c3ncc(Cc4ccccc4)c4ccccc34)CC2)nc1 5.52

Consider next the compound CC(O)(CO)c1ccc(N2CCN(c3nnc(Cc4ccccc4)c4ccccc34)CC2)nc1 (racemic) in the same way. 6.87

Consider next the compound NS(=O)(=O)c1ccc(N2CCN(c3nnc(Cc4ccccc4)c4ccccc34)CC2)nc1 in the same way. 6.04

Consider next the compound N#Cc1ccc(N2CCN(c3nnc(Cc4ccc(C(F)(F)F)cc4)c4ccccc34)CC2)nc1 in the same way. 5.91

Consider next the compound FC(F)(F)c1ccc(N2CCN(c3nnc(Cc4ccccc4)c4occc34)CC2)nc1 in the same way. 5.59

Consider next the compound N#Cc1ccc(N2CCN(c3nnc(Cc4ccccc4)c4ccccc34)CC2)nc1 in the same way. 6.09

(A) N#Cc1ccc(N2CCN(c3cnc(Cc4ccccc4)c4ccccc34)CC2)nc1
(B) CC(C)(N)c1ccc(N2CCN(c3nnc(Cc4ccccc4)c4ccccc34)CC2)nc1
(C) C[C@@H]1CN(c2nnc(Cc3ccccc3)c3ccccc23)CCN1c1ccc(C#N)cn1
Parameters: sort_field (pIC50), sort_dir (desc). Put the labels in the requested order and write them down. B, C, A

(1) N#Cc1ccc(N2CCCN(c3nnc(Cc4ccccc4)c4ccccc34)CC2)nc1
(2) CC(=O)NCc1ccc(N2CCN(c3nnc(Cc4ccccc4)c4ccccc34)CC2)nc1
Smaller pIC50 value, 1 vs 2 ? Respond using the label that marks the chosen record. 1
(1: 5.79, 2: 6.49)

(a) FC(F)(F)c1ccc(N2CCN(c3nnc(Cc4ccccc4)c4ccccc34)CC2)nc1
(b) N#Cc1ccc(N2CCN(c3nnc(Cc4ccc(Cl)cc4)c4ccccc34)CC2)nc1
(c) OCc1ccc(N2CCN(c3nnc(Cc4ccccc4)c4ccccc34)CC2)nc1
Let's sort these by pIC50, smallest first. Go ahead? Put the labels in the requested order and write them down. c, a, b
(c: 5.61, a: 5.88, b: 6.30)

(P) OC1(c2ccc(N3CCN(c4nnc(Cc5ccccc5)c5ccccc45)CC3)nc2)CC1
(Q) C[C@@H]1CN(c2ccc(C#N)cn2)CCN1c1nnc(Cc2ccccc2)c2ccccc12
(R) CC(C)(O)c1ccc(N2CCN(c3nnc(Cc4ccccc4)c4ccccc34)CC2)nc1
Parameters: sort_field (pIC50), sort_dir (desc). Put the labels in the requested order and write them down. R, P, Q
